- TESTED ON: UniProt P08908
- Sequence (P08908 whole entry): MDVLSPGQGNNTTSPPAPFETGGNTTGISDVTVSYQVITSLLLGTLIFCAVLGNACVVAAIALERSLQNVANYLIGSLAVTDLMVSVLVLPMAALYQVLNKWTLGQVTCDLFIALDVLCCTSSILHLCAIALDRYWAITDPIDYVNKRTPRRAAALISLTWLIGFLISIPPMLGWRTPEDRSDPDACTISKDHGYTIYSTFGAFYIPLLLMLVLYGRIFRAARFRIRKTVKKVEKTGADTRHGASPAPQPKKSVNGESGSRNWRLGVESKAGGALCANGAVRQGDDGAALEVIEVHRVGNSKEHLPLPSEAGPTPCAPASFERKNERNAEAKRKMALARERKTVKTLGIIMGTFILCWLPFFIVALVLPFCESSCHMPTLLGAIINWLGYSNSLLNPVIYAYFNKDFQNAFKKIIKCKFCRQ
- Assay type: functional, cell-based

| MOLECULE | TESTED ON | AC50 |
| --- | --- | --- |
| C[C@H]1O[C@H](O[C@H]2[C@H](O)[C@@H](O)[C@@H](O[C@H]3[C@H](O)[C@@H](O)C(O)O[C@@H]3CO)O[C@@H]2CO)[C@H](O)[C@@H](O)[C@@H]1N[C@H]1C=C(CO)[C@@H](O)[C@H](O)[C@H]1O (stereo partly drawn) [ACARBOSE] | UniProt P08908 | > 30 µM |
| O=C(O)Cc1cn(-c2ccccc2)nc1-c1ccc(Cl)cc1 [LONAZOLAC] | UniProt P08908 | > 30 µM |
| NC1=NC(=O)C(c2ccccc2)O1 (stereo not drawn) [PEMOLINE] | UniProt P08908 | > 10 µM |
| COC(=O)C1=C(C)NC(C)=C(C(=O)OCC(C)C)C1c1ccccc1[N+](=O)[O-] (stereo not drawn) [NISOLDIPINE] | UniProt P08908 | > 10 µM |
| COc1ccc2cccc(CCNC(C)=O)c2c1 [AGOMELATINE] | UniProt P08908 | > 30 µM |
| CN[C@@H](C)[C@H](O)c1ccccc1 [EPHEDRINE] | UniProt P08908 | > 10 µM |
| CN(CCOc1ccc(NS(C)(=O)=O)cc1)CCc1ccc(NS(C)(=O)=O)cc1 [DOFETILIDE] | UniProt P08908 | > 30 µM |
| O=C(Nc1ccccc1)OCC(CN1CCCCC1)OC(=O)Nc1ccccc1 (stereo not drawn) [DIPERODON] | UniProt P08908 | > 10 µM |

* * *

- TESTED ON: Sodium-dependent noradrenaline transporter (Homo sapiens, UniProt P23975); further: assay procedure not described here
- Sequence (P23975 whole entry): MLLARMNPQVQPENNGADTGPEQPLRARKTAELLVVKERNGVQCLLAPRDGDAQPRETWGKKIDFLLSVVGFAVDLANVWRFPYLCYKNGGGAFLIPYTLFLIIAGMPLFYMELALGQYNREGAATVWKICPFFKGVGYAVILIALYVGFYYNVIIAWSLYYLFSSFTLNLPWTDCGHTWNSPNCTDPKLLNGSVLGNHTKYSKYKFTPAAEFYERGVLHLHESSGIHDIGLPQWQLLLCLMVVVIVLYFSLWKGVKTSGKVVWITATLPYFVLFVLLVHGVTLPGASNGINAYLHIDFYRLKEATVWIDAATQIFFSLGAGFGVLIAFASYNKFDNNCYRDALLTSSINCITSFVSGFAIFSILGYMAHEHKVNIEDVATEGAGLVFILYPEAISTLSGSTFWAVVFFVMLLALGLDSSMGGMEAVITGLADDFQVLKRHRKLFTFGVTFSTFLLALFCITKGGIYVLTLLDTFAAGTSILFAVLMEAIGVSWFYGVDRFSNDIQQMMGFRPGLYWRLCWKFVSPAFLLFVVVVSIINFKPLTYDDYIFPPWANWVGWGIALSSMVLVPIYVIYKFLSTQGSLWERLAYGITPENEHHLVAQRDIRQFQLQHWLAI
Examples of compounds with documented AC50 follow.

| COMPOUND | AC50 |
| --- | --- |
| C[C@H]1O[C@H](O[C@H]2[C@H](O)[C@@H](O)[C@@H](O[C@H]3[C@H](O)[C@@H](O)C(O)O[C@@H]3CO)O[C@@H]2CO)[C@H](O)[C@@H](O)[C@@H]1N[C@H]1C=C(CO)[C@@H](O)[C@H](O)[C@H]1O (stereo partly specified) | > 30 µM |
| Cc1cc(O)cc(C)c1Cl | > 30 µM |
| CC[C@@]1(O)C[C@H](O[C@H]2C[C@H](N(C)C)[C@H](O[C@H]3C[C@H](O)[C@H](O[C@H]4CCC(=O)[C@H](C)O4)[C@H](C)O3)[C@H](C)O2)c2c(cc3c(c2O)C(=O)c2c(O)cccc2C3=O)[C@H]1C(=O)OC | > 30 µM |
| O=C(NC1CCN(CCCCC2(C(=O)NCC(F)(F)F)c3ccccc3-c3ccccc32)CC1)c1ccccc1-c1ccc(C(F)(F)F)cc1 [LOMITAPIDE] | 2.2 µM |
| CC(O)CO (stereo unspecified) | > 30 µM |
| O=C1c2ccccc2C(=O)C1C(=O)C(c1ccccc1)c1ccccc1 | > 30 µM |
| O=C(COc1ccc(Cl)cc1)N1CCN(Cc2ccc3c(c2)OCO3)CC1 [FIPEXIDE] | 20.4 µM |
| CC(C)OC(=O)[C@H](C)N[P@](=O)(OC[C@H]1O[C@@H](n2ccc(=O)[nH]c2=O)[C@](C)(F)[C@@H]1O)Oc1ccccc1 | > 30 µM |
| Oc1cccc2cccnc12 | > 30 µM |
| Nc1ccc(C(=O)O)cc1 | > 30 µM |
| CCOc1ccc(/C=C2\NCCc3cc(OCC)c(OCC)cc32)cc1OCC | > 30 µM |
| CC[C@@H]1/C=C(\C)C[C@H](C)C[C@H](OC)[C@H]2O[C@@](O)(C(=O)C(=O)N3CCCC[C@H]3C(=O)O[C@H](/C(C)=C/[C@@H]3CC[C@H](Cl)[C@H](OC)C3)[C@H](C)[C@@H](O)CC1=O)[C@H](C)C[C@@H]2OC | > 30 µM |
| O=C1NCC2(CCN(CCc3ccccc3)CC2)O1 [FENSPIRIDE] | > 30 µM |
| Nc1nc2c(ncn2CCC(CO)CO)c(=O)[nH]1 | > 30 µM |
| CCOC(=O)N[C@@H]1CC[C@@H]2[C@@H](C1)C[C@H]1C(=O)O[C@H](C)[C@H]1[C@H]2/C=C/c1ccc(-c2cccc(F)c2)cn1 | 4.56 µM |
| CC(=O)Oc1c(C)cc(OCC(O)CNC(C)C)c(C)c1C (stereo unspecified) | > 30 µM |

Data origin: ChEMBL document CHEMBL5291721
